molecular target: Isocitrate dehydrogenase [NADP] cytoplasmic (Homo sapiens, UniProt O75874, R132H); assay: Inhibition of IDH1 R132H mutant (unknown origin) using alpha-KG as substrate after 90 mins
Sequence (O75874 2-414 R132H limits assumed): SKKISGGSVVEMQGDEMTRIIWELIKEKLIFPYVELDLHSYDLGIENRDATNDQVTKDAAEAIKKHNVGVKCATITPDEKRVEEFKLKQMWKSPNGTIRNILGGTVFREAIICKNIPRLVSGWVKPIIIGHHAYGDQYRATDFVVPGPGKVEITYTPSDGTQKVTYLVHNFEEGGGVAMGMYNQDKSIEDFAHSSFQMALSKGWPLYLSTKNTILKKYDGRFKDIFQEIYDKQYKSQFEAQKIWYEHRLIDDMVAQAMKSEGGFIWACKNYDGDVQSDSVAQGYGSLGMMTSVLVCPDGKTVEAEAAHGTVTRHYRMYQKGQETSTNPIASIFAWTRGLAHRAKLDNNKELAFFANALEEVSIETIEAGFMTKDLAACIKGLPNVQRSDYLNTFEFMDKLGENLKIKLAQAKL
endpoint: IC50 (nM)
Give your result in nM as a bare value.

`C[C@@H](Nc1nc(N2C(=O)OC[C@@H]2c2ccccc2)c2cn[nH]c2n1)c1cn(-c2ccc(Cl)cc2)cn1` has a reported IC50 of 28

Measured IC50, `C[C@H](O)[C@@H]1COC(=O)N1c1nc(N[C@H](C)c2cn(-c3ccc(F)cc3)cn2)nc2ccsc12` : 28

Entry `Cc1cc([C@@H](C)Nc2nc(N3C(=O)OC[C@@H]3C(C)C)c3cc[nH]c3n2)ncc1-c1ccnc(C(F)(F)F)c1` ; IC50 = 2

Summary for this compound, `C[C@H](Nc1nc(N2C(=O)OC[C@@H]2[C@H](C)F)c2cc[nH]c2n1)c1cn(-c2ccc(Cl)cc2)cn1` : IC50 is 2

====

target: Isocitrate dehydrogenase [NADP], mitochondrial (Homo sapiens, UniProt P48735, R172K); assay: Inhibition of IDH2 R172K mutant (unknown origin) using alpha-KG as substrate after 90 mins in presence of NADPH by RF/MS analysis
Sequence (P48735 40-452 R172K limits assumed): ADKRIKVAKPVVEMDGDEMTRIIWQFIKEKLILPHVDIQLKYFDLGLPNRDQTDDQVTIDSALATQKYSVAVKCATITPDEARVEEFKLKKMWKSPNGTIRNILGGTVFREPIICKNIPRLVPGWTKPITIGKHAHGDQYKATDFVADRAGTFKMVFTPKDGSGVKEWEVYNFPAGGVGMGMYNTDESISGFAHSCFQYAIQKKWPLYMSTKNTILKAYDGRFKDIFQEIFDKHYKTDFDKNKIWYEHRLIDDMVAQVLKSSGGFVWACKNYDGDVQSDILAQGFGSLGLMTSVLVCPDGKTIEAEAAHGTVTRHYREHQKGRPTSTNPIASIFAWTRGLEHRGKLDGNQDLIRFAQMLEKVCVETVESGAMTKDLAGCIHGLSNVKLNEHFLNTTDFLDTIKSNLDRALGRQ
Please go through the items and note down their IC50.
Answer with a number only, understood to be in nM.

Bench note, Isocitrate dehydrogenase [NADP], mitochondrial (Homo sapiens, UniProt P48735, R172K): entry `C[C@H](Nc1nc(N2C(=O)OC[C@@H]2[C@H](C)F)c2cc[nH]c2n1)c1cn(-c2ccc(Cl)cc2)cn1` , its IC50 = 6

Value sought: IC50, system Isocitrate dehydrogenase [NADP], mitochondrial (Homo sapiens, UniProt P48735, R172K), item `Cc1cc([C@@H](C)Nc2nc(N3C(=O)OC[C@@H]3C(C)C)c3cc[nH]c3n2)ncc1-c1ccnc(C(F)(F)F)c1` . Result: 6

====

target: Isocitrate dehydrogenase [NADP] cytoplasmic (Homo sapiens, UniProt O75874, R132H); experiment: Inhibition of IDH1 R132H mutant (unknown origin) using alpha-KG after 105 mins by NADPH depletion assay
endpoint: IC50

Form field IC50 for item `CCOc1ccc(Cl)cc1-n1c(C=C(C)C)c(C(=O)N2CCN[C@H](C)C2)cc(-c2nc(-c3ccc(C(F)(F)F)cc3)cs2)c1=O` on Isocitrate dehydrogenase [NADP] cytoplasmic (Homo sapiens, UniProt O75874, R132H): < 0.3 µM

Entry `CCOc1ccc(N(CC)CC)cc1-n1c(C=C(C)C)c(C(=O)N2CCN[C@H](C)C2)cc(-c2nc(-c3ccc(Cl)cc3)cs2)c1=O` , Isocitrate dehydrogenase [NADP] cytoplasmic (Homo sapiens, UniProt O75874, R132H) data, IC50 value: < 0.3 µM

Kindly note: Isocitrate dehydrogenase [NADP] cytoplasmic (Homo sapiens, UniProt O75874, R132H), `CCc1ccc(Cl)cc1-n1c(C=C(C)C)c(C(=O)N2CCNCC2)cc(-c2nc(-c3ccc(Cl)cc3)cs2)c1=O` , IC50 value reported: < 0.3 µM

====

biological target: Isocitrate dehydrogenase [NADP], mitochondrial (Homo sapiens, UniProt P48735, R140Q); experiment: Inhibition of IDH2 R140Q mutant (unknown origin) using alpha-KG as substrate after 60 mins in presence of NADPH by resazurin-based assay
Sequence (P48735 40-452 R140Q limits assumed): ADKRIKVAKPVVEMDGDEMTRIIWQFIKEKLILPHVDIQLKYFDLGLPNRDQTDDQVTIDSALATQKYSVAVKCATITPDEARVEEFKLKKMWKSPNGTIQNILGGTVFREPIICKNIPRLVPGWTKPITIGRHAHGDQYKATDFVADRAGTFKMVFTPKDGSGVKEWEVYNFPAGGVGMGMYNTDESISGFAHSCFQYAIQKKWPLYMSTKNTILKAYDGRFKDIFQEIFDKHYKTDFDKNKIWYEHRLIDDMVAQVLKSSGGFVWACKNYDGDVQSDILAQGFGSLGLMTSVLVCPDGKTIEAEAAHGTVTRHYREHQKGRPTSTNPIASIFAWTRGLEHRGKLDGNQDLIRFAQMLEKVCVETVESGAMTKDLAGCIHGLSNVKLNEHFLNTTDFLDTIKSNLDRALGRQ
So I've got a bunch of molecules here, and I need their IC50 values.

Sure, the documented IC50 for `CC(C)Nc1nc(Nc2cncc(F)c2)nc(-c2ccccc2F)n1` is ≤ 100 nM

Data point: `CC(C)Nc1nc(Nc2ccccc2)nc(-c2ccccc2Cl)n1` ; IC50 = ≤ 100 nM

What the record says about `CC(C)Nc1nc(Nc2cccc(F)c2)nc(-c2nc(C(F)(F)F)cs2)n1` : IC50 is ≤ 100 nM

Record `Clc1cccc(Nc2nc(NC3CCOCC3)nc(-c3ccccc3)n2)c1` , field IC50: ≤ 100 nM

Lab note: `[2H]C([2H])([2H])C([2H])(C([2H])([2H])[2H])C([2H])([2H])Nc1nc(Nc2ccnc(C(F)(F)F)c2)nc(-c2cccc(C(F)(F)F)n2)n1` gave IC50 of 360 nM

Field IC50 (entry `c1ccc(Nc2nc(NC3CC3)nc(-c3ccccc3)n2)cc1` ) reads ≤ 100 nM
